- Tested on: intestinal alkaline phosphatase [Mus musculus]
- Assay Remarks: mouse intestinal phosphatase enzyme activation – biochemical, luminescence, single concentration, confirmation (AID 434970)
- Cond: purified mouse IAP, CDP-Star luminescence, 30 min, at 10 µM
Out of some 11,000 compounds screened, about 310 (2.8%) were called active. No stated cut-off is given here; in the data, active means activity change below about -85%; inactive means the rest. The list comes from a sample in which actives are over-represented; it also holds close analogues and randomly drawn compounds.
Pick from Y for active, N for inactive when you respond.

[[record]]
compound = "N#CCCn1c(=S)[nH]c2ccccc21"
assayed_target = "intestinal alkaline phosphatase [Mus musculus]"
group_label = "N"

[[record]]
compound = "O=C(Nc1ccc(F)cc1)Nc1cccc(Br)c1"
assayed_target = "intestinal alkaline phosphatase [Mus musculus]"
group_label = "N"


Turning now to a further record.
How did this test come out for CC[C@]1(C(=O)OC)[C@H]2C(=O)N(C)C(=O)[C@H]2[C@H]2CN=C(SCc3ccc(C#N)cc3)N21 ?
N

The reported numbers originate from PubChem BioAssay AID434970.
